molecular target: Recombinant human hepsin (4776-SE-010, R&D Systems), activated (human) (UniProt P05981)
Primed or numbered codes have the meaning given here. *: point of attachment. kt = C-terminal ketothiazole, c1csc(*)n1; kt″ = ketothiazole, c1csc(*)n1
# IC50 of enzyme inhibition listing for each entry below
quantity-kind: IC50 of enzyme inhibition (nM)

[
  {
    "binder": "Ac-KQLR-{kt″} (SMILES CC(=O)N[C@@H](CCCCN)C(=O)N[C@@H](CCC(N)=O)C(=O)N[C@@H](CC(C)C)C(=O)N[C@@H](CCCNC(=N)N)C(=O)c1nccs1) [Ac-KQLR(SEQ ID NO: 1)-kt]",
    "quantity-kind": "IC50 of enzyme inhibition",
    "value-reported": 2
  },
  {
    "binder": "Ac-SWLR-kt (SMILES CC(=O)N[C@@H](CO)C(=O)N[C@@H](Cc1c[nH]c2ccccc12)C(=O)N[C@@H](CC(C)C)C(=O)N[C@@H](CCCNC(=N)N)C(=O)c1nccs1) [Ac-SWLR(SEQ ID NO: 17)-kt]",
    "quantity-kind": "IC50 of enzyme inhibition",
    "value-reported": 9
  }
]
